Here the recorded growth is given for each entry.
test system: K-562 leukemia; assay: NCI-60 one-dose screen, 48 h (100 = growth as untreated, 0 = no growth, -100 = all killed); details: 10 µM unless noted
About 83,000 compounds went through this panel and 20% of them were active in at least one assay; those are over-represented in the sample as a whole. Calls of active or inactive are those of the source. Rule for the calls: active = growth percent below 10; inactive = the rest.

// known answers, use as guide
Form field growth, entry CCC1(CCSC#N)C(=O)NC(=O)NC1=O : 86.5% (inactive)

For record [N-]=[N+]=CC(=O)CCC(=O)C=[N+]=[N-] the listed growth is 83.9% (inactive)

Entry under test: C[C@H](O)CCC(=O)c1ccoc1 . Its growth was 96.5% (inactive)

***
Looking up Nc1nc(=S)nc(N)[nH]1 , I found its growth recorded as 103% (inactive)

Lab note: measured growth of COC(=O)CCP(CCC(=O)OC)c1ccccc1 was 111% (inactive)

growth for CCOC(=O)P(=O)(OCC)OCC is 121% (inactive)

The reported value for O=[P+](O)c1cccnc1 in terms of growth is 99.1% (inactive)

Sure, the documented growth for Nc1ccc(S(=O)(=O)F)cc1 is 91.8% (inactive)

Kindly note the recorded growth for O=C1c2ccccc2C(=O)N1N1CC1c1ccccc1 (stereo not drawn) , which is 97.7% (inactive)

Recorded result, C[C@]12CC[C@H]3[C@@H](CC=C4c5nc(-c6ccc(Br)cc6)sc5CC[C@@]43C)[C@@H]1CC[C@@H]2O , growth: 76.7% (inactive)

Entry CNC(=O)O/N=C(\SC)C(=O)N(C)C , growth reported as 89.2% (inactive)

// field: growth; key: CC1OC(=O)C(C(C)C)NC(=O)C(C(C)C)OC(=O)C(C(C)C)NC(=O)C(C)OC(=O)C(C(C)C)NC(=O)C(C(C)C)OC(=O)C(C(C)C)NC(=O)C(C)OC(=O)C(C(C)C)NC(=O)C(C(C)C)OC(=O)C(C(C)C)NC1=O (stereo not drawn) ; value = -38.2% (active)

In plain terms, O=[N+]([O-])c1ccc(CI)cc1 has a documented growth of 12.3% (inactive)

---

test system: HS 578T breast; test: NCI-60 one-dose screen, 48 h (100 = growth as untreated, 0 = no growth, -100 = all killed); settings: 10 µM unless noted
This is part of a sample that, as a whole, favours compounds with a hit. Of some 83,000 tested, about 20% had one in any assay. Active and inactive are the calls of the source. How the source made its calls: active means growth percent below 10; inactive means the rest.
recordedMetric: growth

Known results for compounds:
Reported growth for CO[C@H]1[C@H](O[C@@H]2C[C@@H]3C/C=C/C(=O)O[C@@H](CO)C[C@H](O)[C@@H]4C[C@H](C)[C@H](C/C=C\C=C\[C@H](C)C[C@H](C2)O3)O4)O[C@@H](C)[C@H](O)[C@H]1O was 95.1% (inactive)

# growth (compound: OCCN=Cc1c[nH]c2ccccc12 ) is 97.5% (inactive)

// recorded growth for Cc1ccc(C(=O)O[C@H](C(=O)O)[C@H](OC(=O)c2ccc(C)cc2)C(=O)O)cc1 : 128% (inactive)

---
Recorded growth (compound N#CC(C#N)=Cc1cccc(F)c1 ): 101% (inactive)

Note to self: growth recorded for C[C@]12C[C@H](c3ccoc3)OC(=O)[C@H]1CC[C@@]1(C)[C@@H]2[C@H]2C=C[C@]1(O)C(=O)O2 was 107% (inactive)
